# study.system: Amyloid-beta precursor protein (Homo sapiens) (UniProt P05067)
# Sequence (P05067 whole entry): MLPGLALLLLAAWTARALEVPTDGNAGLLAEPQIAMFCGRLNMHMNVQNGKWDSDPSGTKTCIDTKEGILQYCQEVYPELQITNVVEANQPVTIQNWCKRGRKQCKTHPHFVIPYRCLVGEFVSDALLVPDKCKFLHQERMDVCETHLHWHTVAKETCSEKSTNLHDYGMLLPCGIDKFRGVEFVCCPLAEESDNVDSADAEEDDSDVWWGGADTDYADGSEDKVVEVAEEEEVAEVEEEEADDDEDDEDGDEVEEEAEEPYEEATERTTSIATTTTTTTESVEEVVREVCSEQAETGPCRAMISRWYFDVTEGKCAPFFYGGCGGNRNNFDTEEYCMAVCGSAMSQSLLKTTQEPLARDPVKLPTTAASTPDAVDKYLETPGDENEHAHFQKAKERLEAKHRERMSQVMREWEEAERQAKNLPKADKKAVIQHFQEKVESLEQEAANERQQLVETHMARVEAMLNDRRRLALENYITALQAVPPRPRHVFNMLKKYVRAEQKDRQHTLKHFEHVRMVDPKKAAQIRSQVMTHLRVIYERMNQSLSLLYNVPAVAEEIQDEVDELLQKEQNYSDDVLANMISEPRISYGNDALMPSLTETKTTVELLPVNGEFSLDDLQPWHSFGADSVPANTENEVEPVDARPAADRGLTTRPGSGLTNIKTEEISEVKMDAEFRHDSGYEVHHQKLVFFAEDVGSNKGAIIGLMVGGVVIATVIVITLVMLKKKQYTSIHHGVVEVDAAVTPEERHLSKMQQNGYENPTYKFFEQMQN
# experimental.details: Inhibition of amyloid beta 40 (unknown origin) aggregation assessed as assessed as decrease in fibril formation by measuring decrease in fibril-specific OC antibody spots at 150 uM and measured for 48 hrs by Dot-Blot assay
The source made the active and inactive calls. The calls are words filed in the database; no cut-off is given here.
Please reply with one of these outcomes: active, inactive

Task: How did this test come out for CCCC[C@@H]1NC(=O)[C@@H](CC(C)C)NC(=O)[C@H](CCCCN)NC(=O)[C@@H](CO)NC(=O)[C@H](Cc2c[nH]cn2)NC(=O)N(Cc2cc3ccccc3[nH]2)NC1=O ?
Output: inactive

Task: Call for entry CCCC[C@@H]1NC(=O)N(CC(C)C)NC(=O)[C@H](CCCCN)NC(=O)[C@@H](CO)NC(=O)[C@H](Cc2c[nH]cn2)NC(=O)[C@@H](Cc2c[nH]c3ccccc23)NC1=O (racemic) :
Output: inactive

Task: What classification did CCCC[C@@H]1NC(=O)[C@@H](CC(C)C)NC(=O)[C@H](CCCCN)NC(=O)[C@@H](CO)NC(=O)N(Cc2c[nH]nn2)NC(=O)[C@@H](Cc2c[nH]c3ccccc23)NC1=O (racemic) end up with in this test?
Output: active

Task: Recorded call for CCCCN1NC(=O)[C@@H](CC(C)C)NC(=O)[C@H](CCCCN)NC(=O)[C@@H](CO)NC(=O)[C@H](Cc2c[nH]cn2)NC(=O)[C@@H](Cc2c[nH]c3ccccc23)NC1=O (racemic) ?
Output: active
